- assay_info: DRUGMATRIX: Serotonin (5-Hydroxytryptamine) 5-HT3 radioligand binding (ligand: [3H] GR-65630)
- Type: cell membranes, Membrane
- setup_conditions: hek293; Not Active = under 50% inhibition at 10 µM; read-out: IC50
pIC50: −log10 of the molar value.
Entries annotated with measured pIC50

molecule	pIC50
CN1[C@@H]2CC[C@H]1C[C@@H](OC(=O)c1c[nH]c3ccccc13)C2 [TROPISETRON]	8.17
Cc1[nH]cnc1CN1CCc2c(c3ccccc3n2C)C1=O [ALOSETRON]	8.93

====

- assay_info: DRUGMATRIX: GABAA, Flunitrazepam, Central radioligand binding (ligand: [3H] Flunitrazepam)
- Format: cell membranes, Rattus norvegicus, Wistar, Brain, Membrane
- setup_conditions: Not Active = under 50% inhibition at 10 µM
measured_endpoint: IC50

compound	measurement
CC(C)(S)[C@@H](N)C(=O)O	Not Active
COc1ccc2cc(CC(=O)O)ccc2c1	Not Active
Cc1c(-c2ccccc2)oc2c(C(=O)OCCN3CCCCC3)cccc2c1=O [FLAVOXATE]	Not Active
CN1C(C(=O)Nc2ccccn2)=C(O)c2ccccc2S1(=O)=O	Not Active
CC1=Nc2ccc(Cl)cc2S(=O)(=O)N1 [DIAZOXIDE]	Not Active
Cc1ncc([N+](=O)[O-])n1CC(C)O (stereo unspecified)	Not Active
N=C(N)NCCCCNC(=N)N.O=S(=O)(O)O [ARCAINE SULFATE]	Not Active
CC(=O)S[C@@H]1CC2=CC(=O)CC[C@]2(C)[C@H]2CC[C@@]3(C)[C@@H](CC[C@@]34CCC(=O)O4)[C@H]12	Not Active
NNc1ccccc1 [PHENYLHYDRAZINE]	Not Active
COc1ccc(CN(CCN(C)C)c2ccccn2)cc1	Not Active
O=c1[nH]cc(F)c(=O)[nH]1	Not Active

====

- tested_system: Mitogen-activated protein kinase 1 (Homo sapiens, UniProt P28482)
- Sequence (P28482 whole entry): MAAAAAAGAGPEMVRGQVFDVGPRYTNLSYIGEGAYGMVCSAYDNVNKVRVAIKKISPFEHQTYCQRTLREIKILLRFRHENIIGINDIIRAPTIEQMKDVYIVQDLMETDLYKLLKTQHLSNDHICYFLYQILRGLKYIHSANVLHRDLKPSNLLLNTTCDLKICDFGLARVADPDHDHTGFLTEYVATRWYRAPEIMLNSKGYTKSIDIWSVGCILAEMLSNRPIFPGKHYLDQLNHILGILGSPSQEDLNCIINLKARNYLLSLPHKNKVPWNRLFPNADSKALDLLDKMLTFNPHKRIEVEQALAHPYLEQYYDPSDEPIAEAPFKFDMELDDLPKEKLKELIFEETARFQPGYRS
- assay_info: DRUGMATRIX: Protein Serine/Threonine Kinase, ERK2 enzyme inhibition (substrate: Myelin Basic Protein)
- Parameters: species or system Escherichia coli
- setup_conditions: Not Active = under 50% inhibition at 10 µM; read-out: IC50
Entries annotated with measured IC50
measured_endpoint: IC50

structure_notation	tested_system	measured_endpoint	measurement
Oc1c(Cl)cc(Cl)cc1Sc1cc(Cl)cc(Cl)c1O	Mitogen-activated protein kinase 1 (Homo sapiens, UniProt P28482)	IC50	0.385 µM
CC1=C(/C=C/C(C)=C/C=C/C(C)=C\C(=O)O)C(C)(C)CCC1	Mitogen-activated protein kinase 1 (Homo sapiens, UniProt P28482)	IC50	0.462 µM
Oc1c(I)cc(I)c2cccnc12	Mitogen-activated protein kinase 1 (Homo sapiens, UniProt P28482)	IC50	0.294 µM

====

- tested_system: Sigma non-opioid intracellular receptor 1 (Homo sapiens)
- Sequence (Q99720 whole entry): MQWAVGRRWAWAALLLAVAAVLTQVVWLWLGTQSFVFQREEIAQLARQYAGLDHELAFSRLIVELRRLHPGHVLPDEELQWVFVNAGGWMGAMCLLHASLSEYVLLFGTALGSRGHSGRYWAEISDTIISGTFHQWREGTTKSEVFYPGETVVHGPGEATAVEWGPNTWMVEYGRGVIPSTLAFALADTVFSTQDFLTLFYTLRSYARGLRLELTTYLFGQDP
- assay_info: DRUGMATRIX: Sigma1 radioligand binding (ligand: [3H] Haloperidol)
- Format: cell membranes, Jurkat, Membrane
- setup_conditions: jurkat; Not Active = under 50% inhibition at 10 µM
Where a SMILES comes first, the peptide text is derived from it. Bridges are numbered along the chain shown (N, C = ends). [ ]: non-standard residue; d: D form. The star is where a group is joined. Ileψ(thiazoline)Cys = CC[C@H](C)[C@H](N)C1=N[C@H](C(=O)*)CS1; dOrn = NCCC[C@@H](N)C(=O)O

compound	IC50
CC[C@H](C)[C@H](N)C1=N[C@H](C(=O)N[C@@H](CC(C)C)C(=O)N[C@H](CCC(=O)O)C(=O)N[C@H](C(=O)N[C@H]2CCCCNC(=O)[C@H](CC(N)=O)NC(=O)[C@@H](CC(=O)O)NC(=O)[C@H](Cc3cnc[nH]3)NC(=O)[C@@H](Cc3ccccc3)NC(=O)[C@H]([C@@H](C)CC)NC(=O)[C@@H](CCCN)NC2=O)[C@@H](C)CC)CS1 [BACITRACIN] ({Ileψ(thiazoline)Cys}-L[dE]IK[dOrn]I[dF]H[dD]N; lactam 4-C)	Not Active
Brc1ccccc1 [BROMOBENZENE]	Not Active
NNc1ccccc1 [PHENYLHYDRAZINE]	Not Active

====

- tested_system: Muscarinic acetylcholine receptor M5 (Homo sapiens); further: in other assays of this panel Not Active means under 50% inhibition at 10 µM
- Sequence (P08912 whole entry): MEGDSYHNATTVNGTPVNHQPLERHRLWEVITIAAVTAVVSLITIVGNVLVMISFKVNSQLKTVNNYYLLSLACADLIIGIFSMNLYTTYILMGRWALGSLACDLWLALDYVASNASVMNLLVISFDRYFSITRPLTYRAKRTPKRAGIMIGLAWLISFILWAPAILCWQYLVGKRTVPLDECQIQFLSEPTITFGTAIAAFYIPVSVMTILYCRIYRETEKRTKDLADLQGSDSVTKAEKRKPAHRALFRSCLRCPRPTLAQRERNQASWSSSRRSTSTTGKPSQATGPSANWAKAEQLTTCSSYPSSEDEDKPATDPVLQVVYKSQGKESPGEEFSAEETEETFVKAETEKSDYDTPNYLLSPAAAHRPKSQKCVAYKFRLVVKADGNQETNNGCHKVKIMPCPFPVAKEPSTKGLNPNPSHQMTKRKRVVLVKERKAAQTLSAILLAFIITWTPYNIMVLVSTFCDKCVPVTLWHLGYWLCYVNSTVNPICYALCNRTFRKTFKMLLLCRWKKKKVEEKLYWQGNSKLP
- Assay type: cell membranes, CHO-K1, Membrane
- setup_conditions: cho-k1; read-out: Ki

sequence_entry	tested_system	Ki / µM
IVERMECTIN	Muscarinic acetylcholine receptor M5 (Homo sapiens)	2.59

====

- tested_system: Sodium-dependent dopamine transporter (Homo sapiens, UniProt Q01959)
- Sequence (Q01959 whole entry): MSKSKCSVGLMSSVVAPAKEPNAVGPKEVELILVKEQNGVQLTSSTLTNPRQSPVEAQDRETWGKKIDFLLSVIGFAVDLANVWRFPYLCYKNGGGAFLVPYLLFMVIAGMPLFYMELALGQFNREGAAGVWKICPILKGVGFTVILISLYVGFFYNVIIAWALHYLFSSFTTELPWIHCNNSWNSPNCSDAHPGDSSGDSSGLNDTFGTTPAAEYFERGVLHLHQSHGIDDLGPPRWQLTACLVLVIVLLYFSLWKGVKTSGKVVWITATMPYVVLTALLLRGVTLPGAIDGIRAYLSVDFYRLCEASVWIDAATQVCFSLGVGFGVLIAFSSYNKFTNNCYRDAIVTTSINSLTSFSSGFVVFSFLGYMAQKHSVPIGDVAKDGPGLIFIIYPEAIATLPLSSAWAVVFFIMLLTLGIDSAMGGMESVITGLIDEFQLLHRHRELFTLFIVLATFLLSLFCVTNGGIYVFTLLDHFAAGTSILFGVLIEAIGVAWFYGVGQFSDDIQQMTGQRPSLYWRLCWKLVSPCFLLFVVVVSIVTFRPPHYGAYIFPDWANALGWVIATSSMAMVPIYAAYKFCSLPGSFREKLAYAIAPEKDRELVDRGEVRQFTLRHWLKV
- assay_info: DRUGMATRIX: Dopamine Transporter radioligand binding (ligand: [125I] RTI-55)
- Type: cell membranes, CHO-K1, Membrane
- setup_conditions: cho-k1; Not Active = under 50% inhibition at 10 µM
Where a SMILES comes first, the peptide text is derived from it. Bridges are numbered along the chain shown (N, C = ends). [ ]: non-standard residue; d: D form. The star is where a group is joined. Ileψ(thiazoline)Cys = CC[C@H](C)[C@H](N)C1=N[C@H](C(=O)*)CS1; dOrn = NCCC[C@@H](N)C(=O)O
measured_endpoint: IC50

compound	measurement
CC(=O)[C@H]1CC[C@H]2[C@@H]3CCC4=CC(=O)CC[C@]4(C)[C@H]3CC[C@]12C	Not Active
CCC1(c2ccccc2)C(=O)NCNC1=O	Not Active
CC1CN(c2cc3c(cc2F)c(=O)c(C(=O)O)cn3-c2ccc(F)cc2F)CCN1 (stereo not drawn)	Not Active
C[C@](N)(Cc1ccc(O)cc1)C(=O)O	Not Active
CCCCOC(=O)c1ccc(N)cc1	Not Active
COc1cc(C(=O)NC2CCCNC2)cc(OC)c1OC (stereo not drawn) [TROXIPIDE]	Not Active
O=C1CN=C(c2ccccc2)c2cc([N+](=O)[O-])ccc2N1	Not Active
Cc1[nH]cnc1CN1CCc2c(c3ccccc3n2C)C1=O	Not Active
CC[C@@]1(O)C(=O)OCc2c1cc1n(c2=O)Cc2cc3ccccc3nc2-1	Not Active
Brc1ccccc1	Not Active
Cn1cnc([N+](=O)[O-])c1Sc1ncnc2nc[nH]c12	Not Active
N=C(N)NCCCCNC(=N)N.O=S(=O)(O)O [ARCAINE SULFATE]	Not Active
CCCC[C@@H](CC)COC(=O)c1ccccc1C(=O)OC[C@@H](CC)CCCC [BIS(2-ETHYLHEXYL)PHTHALATE]	Not Active
CC[C@H](C)[C@H](N)C1=N[C@H](C(=O)N[C@@H](CC(C)C)C(=O)N[C@H](CCC(=O)O)C(=O)N[C@H](C(=O)N[C@H]2CCCCNC(=O)[C@H](CC(N)=O)NC(=O)[C@@H](CC(=O)O)NC(=O)[C@H](Cc3cnc[nH]3)NC(=O)[C@@H](Cc3ccccc3)NC(=O)[C@H]([C@@H](C)CC)NC(=O)[C@@H](CCCN)NC2=O)[C@@H](C)CC)CS1 [BACITRACIN] ({Ileψ(thiazoline)Cys}-L[dE]IK[dOrn]I[dF]H[dD]N; lactam 4-C)	Not Active
c1ccc2[nH]c(-c3cscn3)nc2c1	Not Active
Nc1nnc(-c2cccc(Cl)c2Cl)c(N)n1	Not Active
O=[N+]([O-])c1cc([As](=O)(O)O)ccc1O	Not Active
NCC(=O)O	Not Active
CC(C)(C)NCC(O)c1ccc(O)c(CO)c1 (stereo not drawn)	Not Active
NC(=O)c1ncn([C@@H]2O[C@H](CO)[C@@H](O)[C@H]2O)n1	Not Active
CCOC(=O)[C@H](CCc1ccccc1)N[C@@H](C)C(=O)N1[C@H](C(=O)O)C[C@@H]2CCC[C@@H]21	Not Active
NC(=O)c1ccccc1O [SALICYLAMIDE]	Not Active
C=C1[C@@H]2CCC3[C@@](CC[C@@H]4[C@H](C(=O)O)C[C@@H](O[C@@H]5O[C@H](CO)[C@@H](OS(=O)(=O)[O-])[C@H](OS(=O)(=O)[O-])[C@H]5OC(=O)CC(C)C)C[C@@]34C)(C2)[C@@H]1O.[K+].[K+] (stereo partly drawn) [ATRACTYLOSIDE]	Not Active
CC=CC(=O)N(CC)c1ccccc1C	Not Active
CC(C)(Oc1ccc(CCNC(=O)c2ccc(Cl)cc2)cc1)C(=O)O [BEZAFIBRATE]	Not Active
Nc1nc2c(ncn2COC(CO)CO)c(=O)[nH]1	Not Active
O=C1NC(=O)C(c2ccccc2)(c2ccccc2)N1	Not Active
NCCCC[C@H](N[C@@H](CCc1ccccc1)C(=O)O)C(=O)N1CCC[C@H]1C(=O)O [LISINOPRIL ANHYDROUS]	Not Active
CC[C@H]1OC(=O)[C@H](C)[C@@H](O[C@H]2C[C@@](C)(OC)[C@@H](O)[C@H](C)O2)[C@H](C)[C@@H](O[C@@H]2O[C@H](C)C[C@H](N(C)C)[C@H]2O)[C@](C)(O)C[C@@H](C)/C(=N\OCOCCOC)[C@H](C)[C@@H](O)[C@]1(C)O	Not Active
COS(C)(=O)=O	Not Active
CC(C)(S)[C@@H](N)C(=O)O	Not Active
CN1C(C(=O)Nc2ccccn2)=C(O)c2ccccc2S1(=O)=O	Not Active
CC(=O)CCCCn1c(=O)c2c(ncn2C)n(C)c1=O	Not Active
